System: quisqualic acid stimulated spreading depression in chicken retina
run_description: Spreading depression (Test 2), quisqualic acid stimulated, chicken retina
Format: cell-based
test_settings: Gallus gallus, quisqualate 1 μg/ml, 15 min preincubation, 26° C., read-out: IC50 (50% maximal inhibition of quisqualic acid stimulated spreading depression), TEST 2
readout: IC50 (nM)
Numbers only, in nM.

QUERY: Retrieve IC50 measured for `Cc1c(C(=O)O)nc2c(=O)[nH]c3cc(C(F)(F)F)ccc3n12` and print it.
RESULT: 1100
